All figures here come from patent US20230255970A1.

System: YAP1 overexpression in U2OS cells
Assay: Cell Painting morphological profile matching to YAP1/TAZ overexpression signature
Assay type: cell-based, human
Conditions: Pearson correlation of Cell Painting signatures, U2OS cells
Each item that follows carries a reported Corr. to YAP1 cluster.
Give the value as a plain number.

| lineNotation | Corr. to YAP1 cluster |
| --- | --- |
| O=C(C[C@H]1C=C[C@@H](NC(=O)Nc2cc(F)ccc2F)[C@H](CO)O1)NCCCN1CCOCC1 | 0.5009 |
| CO[C@@H]1CN(C)C(=O)c2ccc(NC(=O)c3ccccc3F)cc2OC[C@H](C)N(CC2CC2)C[C@@H]1C | 0.4887 |
| CCCC(=O)Nc1ccc2c(c1)C(=O)N(C)C[C@H](OC)[C@H](C)CN(Cc1ccccc1)[C@@H](C)CO2 | 0.4966 |
| C[C@H](CO)N1C[C@H](C)[C@H](CN(C)C)Oc2cc(C#Cc3ccccn3)ccc2S1(=O)=O | −0.4426 |

stdin: Can you share its Corr. to YAP1 cluster? I mean this molecule: CN1c2cc3c(cc2N=C(c2ccc(C(=O)O)cc2)c2ccccc21)C(C)(C)CCC3(C)C
stdout: 0.4357

stdin: For C[C@@H]1CN([C@H](C)CO)C(=O)CCCn2cc(nn2)CO[C@@H]1CN(C)S(=O)(=O)c1ccc(Oc2ccccc2)cc1 , what is its reported Corr. to YAP1 cluster?
stdout: −0.4518
